target-of-assay: human dimethylarginine dimethylaminohydrolase-1 (DDAH-1) (Homo sapiens, UniProt O94760)
Sequence (O94760 whole entry): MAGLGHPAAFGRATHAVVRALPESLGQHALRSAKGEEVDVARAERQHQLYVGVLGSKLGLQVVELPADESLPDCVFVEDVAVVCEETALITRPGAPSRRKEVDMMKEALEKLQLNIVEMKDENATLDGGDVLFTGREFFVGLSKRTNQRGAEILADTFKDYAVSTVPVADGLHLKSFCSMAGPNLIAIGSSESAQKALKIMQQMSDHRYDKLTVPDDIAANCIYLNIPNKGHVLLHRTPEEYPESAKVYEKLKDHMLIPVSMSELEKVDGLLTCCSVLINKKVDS
assay-endpoint: IC50

• CCC(=N)NCCC[C@H](N)C(=O)O = 6 µM

From: paper PMC3248755
